Tested on: NK-92 (IL-2 2.5 ng/mL)
Experiment: relative IC50 (inflection point of fitted viability curve, relative to fitted max inhibition); higher = less sensitive
Settings: 72 h
I would appreciate it if you labelled entries label 1 when relative IC50 is 300 nM or higher, otherwise label 0.

- MOLECULE: "CO[C@H](C(=O)[C@@H](O)[C@@H](C)O)[C@@H]1Cc2cc3cc(O[C@H]4C[C@@H](O[C@@H]5C[C@@H](O)[C@H](O)[C@@H](C)O5)[C@H](O)[C@@H](C)O4)c(C)c(O)c3c(O)c2C(=O)[C@H]1O[C@H]1C[C@@H](O[C@@H]2C[C@@H](O)[C@@H](O[C@@H]3C[C@](C)(O)[C@H](O)[C@@H](C)O3)[C@@H](C)O2)[C@H](O)[C@@H](C)O1"
  MEASURED_ON: "NK-92 (IL-2 2.5 ng/mL)"
  CLASS_NAME: "label 0"
- MOLECULE: "CCc1cnn2c(NCc3ccc[n+]([O-])c3)cc(N3CCCC[C@H]3CCO)nc12"
  MEASURED_ON: "NK-92 (IL-2 2.5 ng/mL)"
  CLASS_NAME: "label 0"
- MOLECULE: "CC/C(=C(\\c1ccc(O)cc1)c1ccc(OCCN(C)C)cc1)c1ccccc1 [4-hydroxytamoxifen]"
  MEASURED_ON: "NK-92 (IL-2 2.5 ng/mL)"
  CLASS_NAME: "label 1"

Is the recorded value of relative IC50 equal to or greater than 300 nM for this molecule? CN(Cc1cnc2nc(N)nc(N)c2n1)c1ccc(C(=O)N[C@@H](CCC(=O)O)C(=O)O)cc1 [Methotrexate]
label 0

Would you say O=C1NC(=O)[C@@H](c2cn3c4c(cccc24)CCC3)[C@@H]1c1c[nH]c2ccccc12 [Tivantinib] shows relative IC50 at minimum 300 nM?
label 0

Decide: is the reported value of relative IC50 for CC1(C)CCC(c2ccc(Cl)cc2)=C(CN2CCN(c3ccc(C(=O)NS(=O)(=O)c4ccc(N[C@H](CCN5CCOCC5)CSc5ccccc5)c(S(=O)(=O)C(F)(F)F)c4)cc3)CC2)C1 equal to or greater than 300 nM?
label 0

Would you say CO[C@@H](C(=O)N1Cc2[nH]nc(NC(=O)c3ccc(N4CCN(C)CC4)cc3)c2C1)c1ccccc1 shows relative IC50 at minimum 300 nM?
label 1

Check this molecule for relative IC50 at or above 300 nM: N#Cc1ccc2[nH]c(O)c(-c3ccc(CN4CCOCC4)cn3)c2c1
label 1

relative IC50 >= 300 nM for CN(C)CCN1C(=O)c2cccc3cc(N)cc(c23)C1=O [Amonafide] ?
label 1

Is the recorded value of relative IC50 equal to or greater than 300 nM for this molecule? CC1(COc2ccc3c(c2)ncn3-c2ccc3cccc(N4CCC(N)CC4)c3n2)COC1
label 1

Evaluate CS(=O)(=O)N1CCN(Cc2cc3nc(-c4cccc5[nH]ncc45)nc(N4CCOCC4)c3s2)CC1 : relative IC50 at minimum 300 nM?
label 1

API: above_or_equal(metric=relative IC50, cutoff=300 nM) for item Cc1cc(Nc2nc(N[C@@H](C)c3ncc(F)cn3)ncc2Cl)[nH]n1
label 0

Could you verify whether the entry O=C(NOCCO)c1ccc2cncn2c1Nc1ccc(I)cc1F shows relative IC50 of no less than 300 nM?
label 1

Given CNC(=O)c1ccccc1Sc1ccc2c(/C=C/c3ccccn3)n[nH]c2c1 , state whether its relative IC50 is at least 300 nM.
label 1
